- assay.target: Anti-CD28 scFv (VH-linker 1-VL)
- Sequence (scFv, as listed by the source): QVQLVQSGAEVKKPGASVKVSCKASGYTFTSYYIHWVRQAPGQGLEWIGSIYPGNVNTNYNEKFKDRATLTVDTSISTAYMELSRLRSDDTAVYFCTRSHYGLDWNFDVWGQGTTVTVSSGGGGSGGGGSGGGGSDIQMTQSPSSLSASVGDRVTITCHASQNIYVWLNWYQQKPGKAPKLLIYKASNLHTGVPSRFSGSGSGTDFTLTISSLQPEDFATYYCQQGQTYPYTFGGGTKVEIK
- experiment.summary: phage ELISA: biotinylated anti-CD28 scFv on neutravidin plate, clonal phage supernatant, anti-M13-HRP; wells pre-incubated with soluble CD28 (competitor);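 further: wells pretreated with soluble CD28 protein in blocking buffer before phage addition, no wash in between, reference wells got blocking buffer only, bound phage detected after washing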
experimental.endpoint: Phage binding ELISA CD28 scFv signal in presence of CD28

| binder | data.value |
| --- | --- |
| MDLCPTAMWNRCFY (Clonal phage from the Peptide-9 library) [Phage-425] | 0.084 |
| MVDCPLISFDECLA (Clonal phage from the Peptide-9 library) [Phage-449] | 0.076 |
| MDWCPRDRWVDCFN (Clonal phage from the Peptide-9 library) [Phage-440] | 0.132 |
| MAWCPADQWHECFN (Clonal phage from the Peptide-9 library) [Phage-431] | 0.456 |
| VILCPTTMWNRCFH (Clonal phage from the Peptide-9 library) [Phage-427] | 0.084 |
| MDWCPRDRWADCFN (Clonal phage from the Peptide-9 library) [Phage-436] | 0.08 |
| IDWCPIIQGLPCFA (Clonal phage from the Peptide-9 library) [Phage-432] | 0.065 |
| IVWCPTTQWNRCAT (Clonal phage from the Peptide-9 library) [Phage-434] | 0.083 |
| MDWCPMSRWAFCFD (Clonal phage from the Peptide-9 library) [Phage-438] | 0.115 |
| MAWCPWASFDECLA (Clonal phage from the Peptide-9 library) [Phage-448] | 0.109 |
| MDWCPRDRWVDCYA (Clonal phage from the Peptide-9 library) [Phage-435] | 0.403 |
| MDWCPRDRWDDCFF (Clonal phage from the Peptide-9 library) [Phage-441] | 0.183 |
| MDWCPRARWHDCFF (Clonal phage from the Peptide-9 library) [Phage-445] | 0.138 |
| MDWCPRDRWDVCYY (Clonal phage from the Peptide-9 library) [Phage-447] | 0.073 |
